# Test system: RXF 393 renal
# Protocol Summary: NCI tumour cell line growth inhibition, 48 h; in the data active = GI50 below about 0.43 µM; inactive = the rest
Permitted responses: yes (1) (active), no (0) (inactive)

Answered examples (6):
[[record]]
compound = "O=C(O)/C=C/c1c[nH]c(=O)[nH]c1=O"
test_system = "RXF 393 renal"
assigned_class = "no (0)"

[[record]]
compound = "Cc1cccc2c3c(sc12)C(c1ccc(F)cc1)C(C#N)=C(N)O3 (centres undefined)"
test_system = "RXF 393 renal"
assigned_class = "yes (1)"

[[record]]
compound = "CC1SC2(CCCCC2)N(NC(=O)c2[nH]c3ccc(Br)cc3c2-c2ccccc2)C1=O (centres undefined)"
test_system = "RXF 393 renal"
assigned_class = "no (0)"

[[record]]
compound = "Cc1[nH]c2cc(F)ccc2c1-c1nc2c3cccnc3c3ncccc3c2[nH]1"
test_system = "RXF 393 renal"
assigned_class = "yes (1)"

[[record]]
compound = "CN(CCCCCl)P(=O)(OCc1ccc([N+](=O)[O-])o1)OCC1OC(n2cnc([N+](=O)[O-])c2N)C(O)C1O (centres undefined)"
test_system = "RXF 393 renal"
assigned_class = "no (0)"

[[record]]
compound = "COCCOCCOCc1n(Cc2ccc3ccccc3n2)c2ccccc2[n+]1Cc1ccc2ccccc2n1"
test_system = "RXF 393 renal"
assigned_class = "no (0)"


input: # outcome recorded in this test, key = CN(CCC(=O)/C(=C\c1ccccc1)c1ccc(Cl)cc1)Cc1ccccc1
output: no (0)

input: Item: COc1ccc(-c2csc(NC(=O)CN3CCN(c4cc5c(cc4F)c(=O)c(C(=O)O)cn5C4CC4)CC3)n2)cc1
output: no (0)

input: Can you check Cc1cc(O)c(C2=NN(c3ccc(S(N)(=O)=O)cc3)C(/C=C/c3ccccc3)C2)cc1Cl (centres undefined) next?
output: no (0)

* * *

Would you mind telling me the reported TGI of each entry?
# Test system: K-562 leukemia
# Protocol Summary: NCI tumour cell line growth inhibition, 48 h

Consider the reported TGI for these compounds:
[[record]]
compound = "O=C(/C=C(\\C(=O)c1cccs1)c1cccs1)c1ccc(C(=O)/C=C(\\C(=O)c2cccs2)c2cccs2)cc1"
test_system = "K-562 leukemia"
measured_endpoint = "TGI"
value_measured = "> 100 µM"

[[record]]
compound = "CC(C)c1ccccc1SCc1cc(=O)cc(CSc2ccccc2C(C)C)o1"
test_system = "K-562 leukemia"
measured_endpoint = "TGI"
value_measured = "> 100 µM"

[[record]]
compound = "NCCN1C(=O)c2ccccc2C1c1ccc(Cl)cc1 (stereo not drawn)"
test_system = "K-562 leukemia"
measured_endpoint = "TGI"
value_measured = "> 100 µM"


Fill in TGI for each of the 6 compounds listed.
1. O=C(O)c1c(Br)c(Br)c(Br)c(Br)c1C1c2ccc(O)cc2Oc2cc(O)ccc21
2. C(=Nc1ccc(-c2nc3ccccc3s2)cc1)c1ccc[nH]1
3. OC1(c2ccc(Cl)cc2)c2ccccc2-c2nc3ccccc3n21 (stereo not drawn)
4. CC(C)(NC(=O)OCc1ccccc1)C(=O)OC(=O)C(C)(C)NC(=O)OCc1ccccc1
5. COc1ccc(-c2c(-c3ccccc3)c(C)nc3nc(SC)nc(SC)c23)cc1OC
6. COc1ccccc1C(=O)NCC1CCCN2CCCCC12 (stereo not drawn)

output:
> 100 µM
66.6 µM
> 100 µM
> 100 µM
32 µM
> 100 µM

Where these numbers come from: PubChem BioAssay (NCI)
